Tested on: O. ochengi microfilariae
Assay explanation: microbe, parasite or virus in culture
Set-up: species or system Onchocerca ochengi
Assay setup: SI = CC50 on Caco-2/LC50 on worm
Record form. Attribute: Selectivity Index (SI) O. ochengi Microfilariae. Fill in for each entry.
Give the figure by itself; no unit, no explanation.

-- ask // Selectivity Index (SI) O. ochengi Microfilariae lookup, key: O=C(OC1Cc2c(O)cc(O)cc2OC1c1cc(O)c(O)c(O)c1)c1cc(O)c(O)c(O)c1 (single isomer, unassigned; (-)) [EGCG, (−)-epigallocatechin-3-O-gallate]
-- reply 46.9

-- ask What about O=C(OC1Cc2c(O)cc(O)cc2OC1c1ccc(O)c(O)c1)c1cc(O)c(O)c(O)c1 (single isomer, unassigned; (-)) [ECG, (−)-epicatechin-3-O-gallate] ?
-- reply 67.6

-- ask And for O=C(O[C@H]1Cc2c(O)cc(O)cc2O[C@@H]1c1ccc(O)c(O)c1)c1cc(O)c(O)c(O)c1 [CG, (+)-catechin-3-O-gallate] ?
-- reply 15.8
